# Subject Of Test: T1, Boi1, P38041
# T1 sequence (P38041 1-86, looked up): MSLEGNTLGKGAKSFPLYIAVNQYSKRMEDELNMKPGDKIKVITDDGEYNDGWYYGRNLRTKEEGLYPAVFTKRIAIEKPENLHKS
# Assay Details: SPOT array
# Condition Context: median of control spots 1162
Experimental Readout: SPOT intensity
Field format: numeric only.

Worked examples follow.
TEVPIPRRPPPPQAA	0
TIRRRAPLSLLESHT	1
RLPAPPPPPRRGPAP	0

Alright, here's another binder for you.
Prompt line: Requested read-out: SPOT intensity. Entry: `SSSSTPPTLPPRRIE`
Response line: 0
